Source of measurements: PubChem BioAssay AID1963865

Tested on: KRAS PDC multicell spheroid viability
testName: Anticancer human tumor 825966-067-R-J1-PDC patient-derived colon carcinoma cell line growth inhibition [KRAS2]
assayConditions: second compound 0.1 µM; first compound 0.0316 µM; stronger effect = lower value
observationType: viability, T/C

QUERY: Fill blank: measured viability, T/C of the compound CC(=O)Nc1cccc(-n2c(=O)n(C3CC3)c(=O)c3c(Nc4ccc(I)cc4F)n(C)c(=O)c(C)c32)c1 + C=CC(=O)N1CCN(c2nc(=O)n(-c3c(C)ccnc3C(C)C)c3nc(-c4c(O)cccc4F)c(F)cc23)C(C)C1 is ____.
RESULT: 23.7%

QUERY: Fill blank: measured viability, T/C of the compound CC(C)n1nc(-c2ccc3oc(N)nc3c2)c2c(N)ncnc21 + CC1OCC2(CCN(c3cnc(Sc4ccnc(N)c4Cl)c(N)n3)CC2)C1N is ____.
RESULT: 132%

QUERY: Fill blank: measured viability, T/C of the compound CCN1CCN(Cc2ccc(Nc3ncc(F)c(-c4cc(F)c5nc(C)n(C(C)C)c5c4)n3)nc2)CC1 + COc1cc2nc(C)nc(NC(C)c3cc(N)cc(C(F)(F)F)c3)c2cc1OC1CCOC1 is ____.
RESULT: 121%

QUERY: Fill blank: measured viability, T/C of the compound CN(C)C/C=C/C(=O)Nc1cc2c(Nc3ccc(F)c(Cl)c3)ncnc2cc1O[C@H]1CCOC1 + C=CC(=O)N1CCN(c2nc(OCC3CCCN3C)nc3c2CCN(c2cccc4cccc(C)c24)C3)CC1CC#N is ____.
RESULT: 86.8%

QUERY: Fill blank: measured viability, T/C of the compound COc1cc(Nc2ncc3c(n2)-c2ccc(Cl)cc2C(c2c(F)cccc2OC)=NC3)ccc1C(=O)O + C=CC(=O)N1CCN(c2nc(=O)n(-c3c(C)ccnc3C(C)C)c3nc(-c4c(O)cccc4F)c(F)cc23)C(C)C1 is ____.
RESULT: 144%

* * *

Test system: KRAS PDC multicell spheroid viability
testName: Anticancer human tumor 825966-067-R-J1-PDC cell line growth inhibition [KRAS2];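 also: spheroids exposed to compounds for 7 days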;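 as to viability, T/C: 100% = DMSO vehicle control viability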
assayConditions: second compound 1 µM; first compound 10 µM; stronger effect = lower value
observationType: viability, T/C (%)
Just the number please, in %, no unit attached.

QUERY: Fill blank: measured viability, T/C of the molecule CC(C)NCC(C(=O)N1CCN(c2ncnc3c2C(C)CC3O)CC1)c1ccc(Cl)cc1 (stereo not drawn) + COc1cc2nc(C)nc(NC(C)c3cc(N)cc(C(F)(F)F)c3)c2cc1OC1CCOC1 is ____.
RESULT: 7.58

QUERY: Fill blank: measured viability, T/C of the molecule CC1OCC2(CCN(c3cnc(Sc4ccnc(N)c4Cl)c(N)n3)CC2)C1N (stereo not drawn) + C=CC(=O)N1CCN(c2nc(=O)n(-c3c(C)ccnc3C(C)C)c3nc(-c4c(O)cccc4F)c(F)cc23)C(C)C1 is ____.
RESULT: 43.1

QUERY: Fill blank: measured viability, T/C of the molecule CCNC(=O)CC1N=C(c2ccc(Cl)cc2)c2cc(OC)ccc2-n2c(C)nnc21 (stereo not drawn) + C=CC(=O)N1CCN(c2nc(=O)n(-c3c(C)ccnc3C(C)C)c3nc(-c4c(O)cccc4F)c(F)cc23)C(C)C1 is ____.
RESULT: 63.6

* * *

Test system: KRAS PDC multicell spheroid viability
testName: Anticancer human tumor 825966-067-R-J1-PDC cell line growth inhibition [KRAS2];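 also: spheroids exposed to compounds for 7 days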
assayConditions: compound alone; run of 08/26/2021
observationType: IC50

QUERY: Fill blank: measured IC50 of the compound C=CC(=O)N1CCN(c2nc(OCC3CCCN3C)nc3c2CCN(c2cccc4cccc(C)c24)C3)CC1CC#N (stereo not given) is ____.
RESULT: > 3.16 µM

QUERY: Fill blank: measured IC50 of the compound COc1cc2nc(C)nc(NC(C)c3cc(N)cc(C(F)(F)F)c3)c2cc1OC1CCOC1 (stereo not given) is ____.
RESULT: 5.81 µM [middle of 5 runs]

QUERY: Fill blank: measured IC50 of the compound CC1OCC2(CCN(c3cnc(Sc4ccnc(N)c4Cl)c(N)n3)CC2)C1N (stereo not given) is ____.
RESULT: 7.63 µM [middle of 5 runs]

QUERY: Fill blank: measured IC50 of the compound C=CC(=O)N1CCN(c2nc(=O)n(-c3c(C)ccnc3C(C)C)c3nc(-c4c(O)cccc4F)c(F)cc23)C(C)C1 (stereo not given) is ____.
RESULT: > 10 µM

QUERY: Fill blank: measured IC50 of the compound CNCc1ccccc1-c1csc(C(C)Nc2nc(C)nc3cc(OC)c(OC)cc23)c1 (stereo not given) is ____.
RESULT: 3.18 µM [middle of 5 runs]

* * *

System: KRAS PDC multicell spheroid viability
testName: Anticancer human tumor 825966-067-R-J1-PDC cell line growth inhibition [KRAS2];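 also: spheroids exposed to compounds for 7 days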;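 as to viability, T/C: 100% = DMSO vehicle control viability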
assayConditions: second compound 1 µM; first compound 10 µM; stronger effect = lower value
Rule for this label: rule met means viability, T/C is less than 9%; rule not met means viability, T/C is at least 9%.

QUERY: Would you kindly verify if viability, T/C of O=C(c1cc(Cc2n[nH]c(=O)c3ccccc23)ccc1F)N1CCN(C(=O)C2CC2)CC1 + COc1cc2nc(C)nc(NC(C)c3cc(N)cc(C(F)(F)F)c3)c2cc1OC1CCOC1 is strictly less than 9%?
RESULT: rule not met

QUERY: Would you kindly verify if viability, T/C of COc1cc2nccc(Oc3ccc(NC(=O)C4(C(=O)Nc5ccc(F)cc5)CC4)cc3)c2cc1OC + CNCc1ccccc1-c1csc(C(C)Nc2nc(C)nc3cc(OC)c(OC)cc23)c1 is strictly less than 9%?
RESULT: rule met

QUERY: Would you kindly verify if viability, T/C of COC(=O)c1ccc2c(C(=Nc3ccc(N(C)C(=O)CN4CCN(C)CC4)cc3)c3ccccc3)c(O)[nH]c2c1 + C=CC(=O)N1CCN(c2nc(OCC3CCCN3C)nc3c2CCN(c2cccc4cccc(C)c24)C3)CC1CC#N is strictly less than 9%?
RESULT: rule met

QUERY: Would you kindly verify if viability, T/C of COc1cc(Nc2ncc3c(n2)-c2ccc(Cl)cc2C(c2c(F)cccc2OC)=NC3)ccc1C(=O)O + CNCc1ccccc1-c1csc(C(C)Nc2nc(C)nc3cc(OC)c(OC)cc23)c1 is strictly less than 9%?
RESULT: rule not met

* * *

System: KRAS PDC multicell spheroid viability
testName: Anticancer human tumor 825966-067-R-J1-PDC cell line growth inhibition [KRAS2];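 also: spheroids exposed to compounds for 7 days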;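 as to viability, T/C: 100% = DMSO vehicle control viability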
assayConditions: second compound 0.1 µM; first compound 0.316 µM; stronger effect = lower value
Rule for this label: TRUE means viability, T/C is less than 90%; FALSE means viability, T/C is at least 90%.

QUERY: Would you kindly verify if viability, T/C of COc1cc2nccc(Oc3ccc(NC(=O)C4(C(=O)Nc5ccc(F)cc5)CC4)cc3)c2cc1OC + CC1OCC2(CCN(c3cnc(Sc4ccnc(N)c4Cl)c(N)n3)CC2)C1N is strictly less than 90%?
RESULT: FALSE

QUERY: Would you kindly verify if viability, T/C of CC1COCCN1c1cc(-c2ccnn2C)c2ccnc(-c3ccn[nH]3)c2n1 (stereo unspecified) + C=CC(=O)N1CCN(c2nc(=O)n(-c3c(C)ccnc3C(C)C)c3nc(-c4c(O)cccc4F)c(F)cc23)C(C)C1 is strictly less than 90%?
RESULT: TRUE

QUERY: Would you kindly verify if viability, T/C of CC(=O)OC12COC1CC(O)C1(C)C(=O)C(O)C3=C(C)C(OC(=O)C(O)C(NC(=O)OC(C)(C)C)c4ccccc4)CC(O)(C(OC(=O)c4ccccc4)C21)C3(C)C (stereo unspecified) + C=CC(=O)N1CCN(c2nc(OCC3CCCN3C)nc3c2CCN(c2cccc4cccc(C)c24)C3)CC1CC#N is strictly less than 90%?
RESULT: TRUE

QUERY: Would you kindly verify if viability, T/C of CC1COCCN1c1cc(-c2ccnn2C)c2ccnc(-c3ccn[nH]3)c2n1 (stereo unspecified) + COc1cc2nc(C)nc(NC(C)c3cc(N)cc(C(F)(F)F)c3)c2cc1OC1CCOC1 is strictly less than 90%?
RESULT: TRUE

QUERY: Would you kindly verify if viability, T/C of CCN1CCN(Cc2ccc(Nc3ncc(F)c(-c4cc(F)c5nc(C)n(C(C)C)c5c4)n3)nc2)CC1 + C=CC(=O)N1CCN(c2nc(OCC3CCCN3C)nc3c2CCN(c2cccc4cccc(C)c24)C3)CC1CC#N is strictly less than 90%?
RESULT: FALSE

QUERY: Would you kindly verify if viability, T/C of CC1OCC2(CCN(c3cnc(Sc4ccnc(N)c4Cl)c(N)n3)CC2)C1N (stereo unspecified) + C=CC(=O)N1CCN(c2nc(OCC3CCCN3C)nc3c2CCN(c2cccc4cccc(C)c24)C3)CC1CC#N is strictly less than 90%?
RESULT: FALSE

QUERY: Would you kindly verify if viability, T/C of CCN1CCN(Cc2ccc(Nc3ncc(F)c(-c4cc(F)c5nc(C)n(C(C)C)c5c4)n3)nc2)CC1 + COc1cc2nc(C)nc(NC(C)c3cc(N)cc(C(F)(F)F)c3)c2cc1OC1CCOC1 is strictly less than 90%?
RESULT: FALSE

QUERY: Would you kindly verify if viability, T/C of CCN1CCN(Cc2ccc(Nc3ncc(F)c(-c4cc(F)c5nc(C)n(C(C)C)c5c4)n3)nc2)CC1 + CNCc1ccccc1-c1csc(C(C)Nc2nc(C)nc3cc(OC)c(OC)cc23)c1 is strictly less than 90%?
RESULT: FALSE

QUERY: Would you kindly verify if viability, T/C of COc1cc(Nc2ncc3c(n2)-c2ccc(Cl)cc2C(c2c(F)cccc2OC)=NC3)ccc1C(=O)O + CC1OCC2(CCN(c3cnc(Sc4ccnc(N)c4Cl)c(N)n3)CC2)C1N is strictly less than 90%?
RESULT: FALSE

QUERY: Would you kindly verify if viability, T/C of CCNC(=O)CC1N=C(c2ccc(Cl)cc2)c2cc(OC)ccc2-n2c(C)nnc21 (stereo unspecified) + CC1OCC2(CCN(c3cnc(Sc4ccnc(N)c4Cl)c(N)n3)CC2)C1N is strictly less than 90%?
RESULT: FALSE
